Reported pIC50 is given for each of the following compounds.
Study target: E. coli DNA gyrase (Escherichia coli, UniProt P0AES6)
Construct: made in house; host or cells: E. coli BL21 (DE3)
Experiment notes: Test for evaluating the activity of inhibiting E. coli DNA gyrase enzyme (Method 1, supercoiling, Inspiralis enzyme)
Assay type: biochemical
Experimental conditions: Method 1; read-out: E. Coli Gyrase supercoiling IC50
Description: Test Example 1-1 Test for Evaluating the Activity of Inhibiting E. coli DNA Gyrase Enzyme (Method 1) The enzymatic activity of E. coli DNA gyrase was measured by a method comprising reacting DNA gyrase and its substrate, relaxed pBR322 (Inspiralis), in the presence of ATP and detecting the post-reaction supercoiled pBR322/relaxed pBR322 ratio with H19 (Profoldin). […]
Lab note: report pIC50 as minus log10 of the concentration in molar units, number only.

Use these answered entries as a reference point.
| Compound | pIC50 |
| --- | --- |
| CNc1cc(F)cc2cc(C(=O)Nc3cnc(C(=O)NCCN4CCOCC4)nc3)c(=O)[nH]c12 [Example 53] | 8.83 |
| CNc1cccc2cc(C(=O)NC3CN(c4ncc(C(=O)O)s4)C3)c(=O)[nH]c12 [Example 10] | 6.34 |
| CNc1cc(F)cc2cc(C(=O)Nc3cncnc3)c(=O)[nH]c12 [Example 50] | 8.73 |
| CNc1cc(F)cc2cc(C(=O)Nc3cnc(C(=O)NCCO)nc3)c(=O)[nH]c12 [Example 71] | 9.06 |

Consider now this further compound.
Prompt: Specify pIC50 for CNc1cccc2cc(C(=O)Nc3cccnc3)c(=O)[nH]c12 [Example 15] and stop.
Response: 7.45

====

Study target: E. coli DNA gyrase (Escherichia coli, UniProt P0AES6)
Construct: made in house; host or cells: E. coli BL21 (DE3)
Experiment notes: Test for evaluating the activity of inhibiting E. coli DNA gyrase enzyme (Method 1, supercoiling, Inspiralis enzyme)
Format: biochemical
Experimental endpoint: pIC50
Field pIC50 (float): negative decimal logarithm of the concentration in molar.

Some solved entries appear below for comparison.
| Compound | Obs value |
| --- | --- |
| CNc1cc(F)cc2cc(C(=O)Nc3cnc(C(=O)OC)nc3)c(=O)[nH]c12 [Example 63] | 8.84 |
| CNc1cccc2cc(C(=O)Nc3ccc(C(=O)NCC4CCNCC4)cc3)c(=O)[nH]c12.O=CO [Example 47, formate] | 7.97 |

Prompt: Please look at this compound and report its pIC50: CNc1cc(F)cc2cc(C(=O)Nc3ccc(C(=O)NCCN)cc3)c(=O)[nH]c12.Cl [Example 68]
Response: 8.03

====

Test system: E. Coli ATCC 25922
Experimental endpoint: MIC

| Molecule | MIC |
| --- | --- |
| CNCCNc1c(C(=O)Nc2ccc(C(=O)O)cc2)c(=O)[nH]c2c(NC)cc(F)cc12.O=CO | > 16 µg/mL |
| CNc1cc(F)cc2cc(C(=O)Nc3ccc(C(=O)NCCN4CCOCC4)cc3CN(C)C3CCN(C)CC3)c(=O)[nH]c12 | > 32 µg/mL |
| CNc1cc(F)cc2cc(C(=O)Nc3c(C)cc(C(=O)O)cc3CN(C)C3CCCCC3)c(=O)[nH]c12 | 64 µg/mL |
| CNc1cncc2cc(C(=O)Nc3ccc(C(=O)O)cc3CN(C)C3CCCCC3)c(=O)[nH]c12 | > 32 µg/mL |
| CNc1cc(F)cc2cc(C(=O)Nc3ccc(C(=O)NCCN4CCOCC4)cc3)c(=O)[nH]c12 | 4 µg/mL |
| CNc1cccc2cc(C(=O)Nc3cnc(N4CCC(N5CCN(CCO)CC5)CC4)nc3)c(=O)[nH]c12 | > 64 µg/mL |
| CNc1cc(F)cc2cc(C(=O)Nc3ccc(C(=O)NCCN4CCOCC4)cc3C)c(=O)[nH]c12 | > 4 µg/mL |
| CNc1cc(F)cc2cc(C(=O)NCCc3cccc(C(=O)O)c3)c(=O)[nH]c12 | > 32 µg/mL |
| CNc1cccc2cc(C(=O)Nc3cncnc3)c(=O)[nH]c12 | > 64 µg/mL |
| CNc1cccc2cc(C(=O)Nc3ccc(C(=O)O)cc3)c(=O)[nH]c12 | 64 µg/mL |

Prompt: Could you please provide reported MIC for `CNc1cccc2cc(C(=O)Nc3cnc(N4CCC(N)CC4)nc3)c(=O)[nH]c12.O=CO` ? Thanks!
Response: > 16 µg/mL

Prompt: Give the value of MIC reported for the following: `CNc1cc(F)cc2cc(C(=O)Nc3cnc(NCCN4CCN(C)CC4)nc3)c(=O)[nH]c12`
Response: 16 µg/mL

Prompt: Please report the measured MIC for `CNc1cc(F)cc2c(O)c(C(=O)Nc3ccc(C(=O)O)cc3CN3CCCC3)c(=O)[nH]c12.O=CO`
Response: 16 µg/mL

Prompt: Fill in reported MIC for this entry: `CNc1cc(F)cc2cc(C(=O)Nc3ccnn3C)c(=O)[nH]c12`
Response: > 8 µg/mL

Prompt: Output measured MIC for this item: `CNc1cccc2cc(C(=O)Nc3ccc(C(=O)NCCCN)cc3)c(=O)[nH]c12.Cl`
Response: > 1 µg/mL

Prompt: Consider the molecule CN=S(C)(=O)c1ccc(NC(=O)c2cc3cccc(NC)c3[nH]c2=O)cc1 (stereo not shown) and give its recorded MIC.
Response: > 8 µg/mL

These data points were gathered from patent US20210070747A1.
